These entries and their values trace back to ChEMBL document CHEMBL5113379.

Experiment: Apparent permeability across basolateral to apical membrane in human Caco-2 cells
Assay type: ADME, cell-based
measured-parameter: Papp B→A (×10⁻⁶ cm/s)
Write the value in ×10⁻⁶ cm/s as a bare number.

IN: Consider the compound O=C1CCN(C(=O)Nc2ccc(F)c(Cl)c2)[C@H]2CCCC[C@@H]12 (relative stereo) . State its measured Papp B→A.
OUT: 7.8

----------
Known t1/2 of a selection of compounds
Assay: Metabolic stability in mouse liver microsomes assessed as half-life
Format: ADME, Microsome
Settings: microsomes
Write the value in min as a bare number.

Example entries and their recorded answers appear below.
[[record]]
compound = "O=C(Nc1ccc(F)c(Cl)c1)c1cccc2c1OC(F)(F)O2"
measured_parameter = "t1/2"
measured_number = 11

[[record]]
compound = "O=C1CCN(C(=O)Nc2ccc(F)c(C(F)F)c2)[C@@H]2CCCC[C@H]12"
measured_parameter = "t1/2"
measured_number = 35

[[record]]
compound = "O=C(Nc1ccc(F)c(Cl)c1)c1cccc2ccoc12"
measured_parameter = "t1/2"
measured_number = 6

[[record]]
compound = "O=C(Nc1ccc(C(F)(F)F)c(Cl)c1)c1cccc2c1OCCO2"
measured_parameter = "t1/2"
measured_number = 6.9

[[record]]
compound = "O=C1CCN(C(=O)Nc2ccc(F)c(Cl)c2)C2CCCCC12 (stereo in doubt; 60)"
measured_parameter = "t1/2"
measured_number = 7


IN: Consider the compound O=C1CCN(C(=O)Nc2ccc(F)c(Cl)c2)C2CCCCC12 (configuration not stated) . State its measured t1/2.
OUT: 7.8

IN: Consider the compound O=C(Nc1ccc(F)c(Cl)c1)c1cccc2c1OCCO2 . State its measured t1/2.
OUT: 6.6

IN: Consider the compound O=C1CCN(C(=O)Nc2ccc(F)c(Cl)c2)c2ccccc21 . State its measured t1/2.
OUT: 10

IN: Consider the compound O=C1CCC(C(=O)Nc2ccc(F)c(Cl)c2)c2ccccc21 (configuration not stated) . State its measured t1/2.
OUT: 5.8

IN: Consider the compound O=C1CCN(C(=O)Nc2ccc(F)c(Cl)c2)C2CCCCC12 (stereo in doubt; 61) . State its measured t1/2.
OUT: 56

IN: Consider the compound CCC(C)NS(=O)(=O)c1cc2c(c(C(=O)Nc3ccc(F)c(Cl)c3)c1)OCCO2 (configuration not stated) . State its measured t1/2.
OUT: 16.4

----------
Test system: Hepatitis B virus
Test: Antiviral activity against HBV infected in mouse AML12HBV10 cells assessed as reduction in viral replication incubated for 48 hrs and measured by [alpha-32P]UTP-labeled radio-probe based dot blot hybridization assay
Assay type: functional, organism-based
Conditions: Hepatitis B virus, AML12HBV10, 48 h
Known pEC50 of a selection of molecules
Scale for pEC50: -log10 of concentration given in mol/L; no unit attached.

[[record]]
chemical_string = "N#Cc1cc(NC(=O)N2CCC(=O)[C@H]3CCCC[C@H]32)ccc1F"
measured_number = 6.07

[[record]]
chemical_string = "C[C@@H](NS(=O)(=O)c1cc2c(c(C(=O)Nc3ccc(F)c(Cl)c3)c1)OCCO2)c1ccncc1"
measured_number = 4.87

[[record]]
chemical_string = "O=C1CCN(C(=O)Nc2ccc(F)c(Cl)c2)c2ccc(Cl)cc21"
measured_number = 5.32


IN: Recall the reported pEC50 of O=C(Nc1ccc(F)c(Cl)c1)c1cccc2nccnc12 when tested on Hepatitis B virus.
OUT: 5.62
